Biological target: adenosine A1 receptor (Cavia porcellus, UniProt P47745)
Construct: from tissue; host or cells: isolated guinea pig left atria
Sequence (P47745 whole entry): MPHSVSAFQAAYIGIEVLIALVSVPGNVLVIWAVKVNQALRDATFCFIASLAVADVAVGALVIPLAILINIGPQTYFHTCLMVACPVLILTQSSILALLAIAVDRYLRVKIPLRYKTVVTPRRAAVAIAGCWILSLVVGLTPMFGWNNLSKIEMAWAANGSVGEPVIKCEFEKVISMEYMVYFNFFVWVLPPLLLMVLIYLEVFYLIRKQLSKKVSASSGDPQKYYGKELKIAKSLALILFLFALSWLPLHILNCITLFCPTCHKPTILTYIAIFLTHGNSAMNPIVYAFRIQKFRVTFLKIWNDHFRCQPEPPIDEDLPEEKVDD
Assay: A1 in vitro functional test: negative inotropic response, left atria, antagonism of NECA
Type: cell-based, guinea pig
Settings: functional, A2 KB /A1 KB
RECORDED METRIC: Selectivity Ratio (A2 KB /A1 KB)
Give bare numbers.

Illustrative cases are given below, each with its answer.
| COMPOUND | Selectivity Ratio (A2 KB /A1 KB) |
| --- | --- |
| CC(C)N(C)c1nc2c(N[C@H]3C[C@@H]4C[C@H]3C[C@@H]4O)ncnc2n1C (relative stereo) | 4450 |
| Cn1c(C#N)nc2c(N[C@H]3C[C@H]4CC[C@@H]3C4)ncnc21 (relative stereo) | 46 |
| Cn1cnc2c(N[C@H]3C[C@@H]4C[C@H]3C[C@@H]4O)ncnc21 (relative stereo) | 324 |

Recorded Selectivity Ratio (A2 KB /A1 KB) for COc1nc2c(N[C@H]3C[C@H]4CC[C@@H]3C4)ncnc2n1C (relative stereo) with adenosine A1 receptor (Cavia porcellus, UniProt P47745), please?
250
